Exercise: for every item that follows, state its recorded pest or weed control at 62.5 g/ha.
Tested on: velvetleaf (Abutilon theophrasti)
measurement protocol: Test G Post-Emergence Protocol
Format: in vivo
experimental setup: Abutilon theophrasti, post-emergence, 312 h, 62.5 g ai/ha, evaluated after 13 days, 100=total damage to plant, 0=no damage to plant, read-out: Velvetleaf damage rating
One number for each entry, in %.

>>> quantitative_result("Cc1cc([C@H]2CN(C)C(=O)[C@@H]2C(=O)Nc2ccccc2S(C)(=O)=O)cc(C(F)(F)F)c1 (racemic)")
0
>>> quantitative_result("CCOc1ccc(C2CN(C)C(=O)C2C(=O)Nc2cccc(F)c2F)cc1OCC (stereo not drawn)")
0
>>> quantitative_result("COc1cc(C2CN(C)C(=O)C2C(=O)Nc2cccc(F)c2F)cc(Cl)c1F (stereo not drawn)")
0

Need pest or weed control at 62.5 g/ha for each of these compounds.
1. CN1C[C@H](c2cccc(C(F)(F)F)c2)[C@@H](C(=O)Nc2cccc3c2S(=O)(=O)CC3)C1=O (racemic)
2. CN1C[C@H](c2ccc(C(F)(F)F)cc2)[C@@H](C(=O)Nc2cnccc2C#N)C1=O (racemic)
3. CN1C[C@H](c2ccc(C(F)(F)F)cc2)[C@@H](C(=O)Nc2cccc3ccsc23)C1=O (racemic)

1. 10
2. 0
3. 0

Look at each compound and report its pest or weed control at 62.5 g/ha.
1. CN1CC(c2cc(C#N)cc(OC(F)(F)F)c2)C(C(=O)Nc2cccc(F)c2F)C1=O (stereo not drawn)
2. CN1C[C@H](c2ccc(Cl)cc2)[C@@H](C(=O)Nc2cccnc2F)C1=O
3. CN1CCC(NC(=O)[C@H]2C(=O)N(C)C[C@@H]2c2ccc(C(F)(F)F)cc2)C1=O (mixture of isomers)

1: 0; 2: 30; 3: 0
